- targetDesc: human calcium receptor (Homo sapiens, UniProt P41180)
- Construct: expressed in transfected cells; host or cells: HEK293
- Sequence (P41180 20-1078): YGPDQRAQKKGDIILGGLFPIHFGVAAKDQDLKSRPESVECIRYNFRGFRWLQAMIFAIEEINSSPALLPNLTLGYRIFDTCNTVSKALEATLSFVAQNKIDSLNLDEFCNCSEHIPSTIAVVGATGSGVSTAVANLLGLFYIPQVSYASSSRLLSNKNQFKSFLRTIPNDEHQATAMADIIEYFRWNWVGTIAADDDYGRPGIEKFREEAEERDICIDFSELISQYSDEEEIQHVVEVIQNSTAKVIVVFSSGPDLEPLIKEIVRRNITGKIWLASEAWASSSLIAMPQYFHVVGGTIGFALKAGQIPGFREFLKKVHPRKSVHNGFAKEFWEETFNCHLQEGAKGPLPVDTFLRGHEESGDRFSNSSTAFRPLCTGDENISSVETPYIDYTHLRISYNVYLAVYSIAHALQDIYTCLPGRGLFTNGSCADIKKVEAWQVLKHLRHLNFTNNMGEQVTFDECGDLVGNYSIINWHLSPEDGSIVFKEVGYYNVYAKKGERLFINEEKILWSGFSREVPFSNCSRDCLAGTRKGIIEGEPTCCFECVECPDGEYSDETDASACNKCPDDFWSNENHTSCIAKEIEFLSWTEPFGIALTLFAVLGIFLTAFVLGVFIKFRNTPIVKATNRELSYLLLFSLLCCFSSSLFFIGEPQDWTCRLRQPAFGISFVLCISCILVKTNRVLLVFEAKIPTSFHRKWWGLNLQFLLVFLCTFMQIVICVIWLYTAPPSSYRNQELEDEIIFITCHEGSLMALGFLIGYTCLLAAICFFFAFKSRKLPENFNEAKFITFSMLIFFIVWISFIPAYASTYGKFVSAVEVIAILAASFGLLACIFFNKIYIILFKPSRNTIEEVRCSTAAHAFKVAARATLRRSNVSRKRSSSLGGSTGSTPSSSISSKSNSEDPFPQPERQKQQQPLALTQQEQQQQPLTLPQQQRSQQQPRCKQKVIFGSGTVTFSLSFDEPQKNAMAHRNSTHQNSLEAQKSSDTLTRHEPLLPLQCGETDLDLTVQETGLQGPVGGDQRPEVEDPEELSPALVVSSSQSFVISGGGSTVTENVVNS
- procedureText: Activity on calcium receptors: fluo-3 fluorescence in HEK293 cells transfected with human calcium receptor gene
- Format: cell-based
- conditionSet: HEK293 cells transfected with plasmid pHuPCaR4.0 (human calcium receptor gene), loaded with fluo-3; 1 mM CaCl2, 1 mM MgCl2
Record form. Attribute: log10(EC50). Fill in for each entry.
Field: value | Transform: log10 | Quantity: EC50 | Unit: µM

Lookup: What does the data say about its log10(EC50)? Entry: `C[C@@H](NCCCCSc1ccc(Cl)cc1)c1cccc2ccccc12`
Found: -0.55

Lookup: What does the data say about its log10(EC50)? Entry: COc1cccc(C(C)NCCCSc2ccccc2Br)c1 (stereo not drawn)
Found: -0.44

Lookup: What does the data say about its log10(EC50)? Entry: COc1cccc(C(C)NCCCCCSc2ccc(F)cc2)c1 (stereo not drawn)
Found: -1.00

Lookup: What does the data say about its log10(EC50)? Entry: CC(NCCCCCCCSc1c(Cl)c(Cl)nc(Cl)c1Cl)c1cccc2ccccc12 (stereo not drawn)
Found: -1.18

Lookup: What does the data say about its log10(EC50)? Entry: `COc1cccc([C@@H](C)NCCCCCSc2ccc(C(F)(F)F)cc2)c1`
Found: -0.39

Lookup: What does the data say about its log10(EC50)? Entry: COc1cccc(C(C)NCCCCCCOc2ccccc2Cl)c1 (stereo not drawn)
Found: 0.88

Lookup: What does the data say about its log10(EC50)? Entry: COc1cccc(C(C)NCCCCCSc2ccccc2Br)c1 (stereo not drawn)
Found: -0.48

Lookup: What does the data say about its log10(EC50)? Entry: COc1cccc(C(C)NCCSc2cccc(Br)c2)c1 (stereo not drawn)
Found: -0.06

Lookup: What does the data say about its log10(EC50)? Entry: COc1cccc(C(C)NCCCCCCSc2ccc(C(F)(F)F)cc2)c1 (stereo not drawn)
Found: -0.41
